Value source: patent US20250154525A1

# System: Human Primary Fibroblast Cells
# measurement protocol: GFP plasmid transfection with DOTMA/DOPE plus plant virus movement protein derived peptides (Example 2)
# Assay type: cell-based
# condition info: Transfection Agent 1 μl, 42 hours
Each entry below carries its recorded Relative Fluorescence of Transfection of Human Primary Fibroblast Cells.
Supply the numeric figure in Rf, leaving out any unit text.

109 (RRRRRRRRRRRR) [compound 109]	28368

Challenge: Would you mind telling me what Relative Fluorescence of Transfection of Human Primary Fibroblast Cells value was observed for 540 (RRRRRRRRRRRRVDYGKWERKPIRCASMSR) [compound 540] ?
Response given: 29368

Challenge: Would you mind telling me what Relative Fluorescence of Transfection of Human Primary Fibroblast Cells value was observed for 546 (RTGVKRSYGAARGDDRRRPNVVRRRRRRRRRRRR) [compound 546] ?
Response given: 31980
